Measured inhibition at 16 µM, listed per entry.
Biological target: Cyclooxygenase (Rattus norvegicus)
Construct: host or cells: RBL-1 rat basophilic leukemia cells
Sequence (Q63921 27-602): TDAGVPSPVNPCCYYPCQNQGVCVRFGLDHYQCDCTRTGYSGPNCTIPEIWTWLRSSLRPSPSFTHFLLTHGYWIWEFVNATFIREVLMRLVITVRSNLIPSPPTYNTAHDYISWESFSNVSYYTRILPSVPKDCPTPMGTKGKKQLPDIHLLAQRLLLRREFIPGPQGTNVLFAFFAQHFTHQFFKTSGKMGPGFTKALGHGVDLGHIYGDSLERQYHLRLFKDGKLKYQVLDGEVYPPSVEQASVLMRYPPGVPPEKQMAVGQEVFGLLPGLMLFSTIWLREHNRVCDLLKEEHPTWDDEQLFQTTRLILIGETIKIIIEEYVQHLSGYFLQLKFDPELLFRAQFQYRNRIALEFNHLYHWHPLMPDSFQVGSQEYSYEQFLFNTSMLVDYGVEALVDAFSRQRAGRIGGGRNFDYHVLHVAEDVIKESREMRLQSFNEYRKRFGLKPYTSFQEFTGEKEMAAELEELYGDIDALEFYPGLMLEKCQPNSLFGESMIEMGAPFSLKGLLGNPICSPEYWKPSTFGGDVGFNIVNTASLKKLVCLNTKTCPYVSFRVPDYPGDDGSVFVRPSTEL
Assay: ARBC whole cell cyclooxygenase assay (PGF2α formation in RBL-1 cells, A23187 stimulated)
Type: cell-based
Settings: RBL-1; at 16 μM; Table 1; read-out: ARBC % inhibition (N)

INSERT INTO results (compound, tested_system, test_value) VALUES
  ('CNC(=O)N(O)C(C)c1ccc2c(c1)Cc1ccccc1-2 (centres unmarked) [Example 8]', 'Cyclooxygenase (Rattus norvegicus)', '< 40%'),
  ('CC(C)C(=O)N(O)C(C)c1ccc2c(c1)Cc1ccccc1-2 (centres unmarked) [Example 13]', 'Cyclooxygenase (Rattus norvegicus)', '< 40%'),
  ('CC(=O)N(O)C(C)c1ccc2c(c1)Cc1ccccc1-2 (centres unmarked) [Example 11]', 'Cyclooxygenase (Rattus norvegicus)', '< 40%'),
  ('CCNC(=S)N(O)C(C)c1ccc2c(c1)Cc1ccccc1-2 (centres unmarked) [Example 14]', 'Cyclooxygenase (Rattus norvegicus)', '< 40%'),
  ('O=C(O)C(=O)N(O)Cc1ccc2c(c1)Cc1ccccc1-2 [Example 3]', 'Cyclooxygenase (Rattus norvegicus)', '< 40%');

Quick one: inhibition at 16 µM for CNC(=O)N(O)Cc1ccc2c(c1)Cc1ccccc1-2 [Example 6] ?
< 40%

And for CC(C)C(=O)N(O)Cc1ccc2c(c1)Cc1ccccc1-2 [Example 5] ?
< 40%

Now the compound CCOC(=O)C(=O)N(O)Cc1ccc2c(c1)Cc1ccccc1-2 [Example 2]
< 40%

###

# inhibition at 16 µM listing for each entry below
Target: 5-Lipoxygenase (Rattus norvegicus, UniProt P12527)
Construct: host or cells: RBL-1 rat basophilic leukemia cells
Sequence (P12527 1-673): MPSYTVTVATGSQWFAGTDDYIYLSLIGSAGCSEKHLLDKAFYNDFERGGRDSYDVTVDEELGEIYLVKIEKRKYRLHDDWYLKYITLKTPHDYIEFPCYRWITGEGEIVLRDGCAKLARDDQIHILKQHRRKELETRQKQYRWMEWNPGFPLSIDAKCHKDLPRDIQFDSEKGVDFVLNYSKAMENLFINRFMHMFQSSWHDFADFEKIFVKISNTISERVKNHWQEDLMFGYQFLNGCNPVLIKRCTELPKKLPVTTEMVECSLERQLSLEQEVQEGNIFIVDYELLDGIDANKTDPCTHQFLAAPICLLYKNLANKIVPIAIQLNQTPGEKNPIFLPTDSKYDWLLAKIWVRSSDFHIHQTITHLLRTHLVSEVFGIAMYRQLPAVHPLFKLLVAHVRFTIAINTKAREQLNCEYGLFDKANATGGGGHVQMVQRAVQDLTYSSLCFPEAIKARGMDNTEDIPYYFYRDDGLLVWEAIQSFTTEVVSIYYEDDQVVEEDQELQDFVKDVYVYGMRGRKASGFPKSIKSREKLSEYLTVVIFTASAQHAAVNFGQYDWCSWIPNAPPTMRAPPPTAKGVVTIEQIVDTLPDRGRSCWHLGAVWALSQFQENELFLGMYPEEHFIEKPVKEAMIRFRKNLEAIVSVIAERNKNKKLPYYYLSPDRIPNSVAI
Assay: ARBL whole cell 5-lipoxygenase assay (LTB4 formation in RBL-1 cells, A23187 stimulated)
Type: cell-based
Settings: at 16 μM; RBL-1 cells; read-out: ARBL % inhibition of LTB4
Give the value in % but do not write % after it.

INSERT INTO measurements (molecule, test_value) VALUES
  ('CC(C)C(=O)N(O)Cc1ccc2c(c1)Cc1ccccc1-2', 99),
  ('CNC(=O)N(O)Cc1ccc2c(c1)Cc1ccccc1-2', 100),
  ('COc1ccc2c(c1)c(CN(O)C(=O)N(C)C)c(C)n2C(=O)c1ccc(Cl)cc1', 100),
  ('CCOC(=O)N(O)C(C)c1ccc2c(c1)Cc1ccccc1-2 (stereo not drawn)', 95);

Enter reported inhibition at 16 µM observed with 5-Lipoxygenase (Rattus norvegicus, UniProt P12527) for ONCc1ccc2c(c1)Cc1ccccc1-2 [Example 1, N-Hydroxy-9H-fluorene-2-methanamine]
97

Same read-out for "CCOC(=O)N(O)Cc1ccccc1Nc1cccc(C(F)(F)F)c1" ?
100

Can you handle "CCOC(=O)CNC(=O)N(O)Cc1c(C)n(C(=O)c2ccc(Cl)cc2)c2ccc(OC)cc12" next?
100

Proceed to "CC(C)C(=O)N(O)Cc1ccc2c(c1)OCc1ccccc1C2=O"
100

Now consider CCNC(=O)N(O)C(C)c1ccc2c(c1)Cc1ccccc1-2 (stereo not drawn) and answer again.
100

###

Biological target: Cyclooxygenase (Rattus norvegicus)
Experiment: ARBC whole cell cyclooxygenase assay (PGF2α formation in RBL-1 cells, A23187 stimulated)
Conditions: RBL-1 cells; read-out: ARBC IC50 (inhibition of PGF2α formation)
assay.readout: pIC50
Friendly reminder that pIC50 comes from taking -log10 of the concentration in mol/L.

Reference set (4 entries):
INSERT INTO assay_data (test_smiles, test_value) VALUES
  ('CNC(=S)N(O)Cc1c(C)n(C(=O)c2ccc(Cl)cc2)c2ccc(OC)cc12', 5.15),
  ('COC(=O)N(O)Cc1c(C)n(C(=O)c2ccc(Cl)cc2)c2ccc(OC)cc12', 4.80),
  ('CC(=O)N(O)Cc1ccccc1Nc1cccc(C)c1C', 4.82),
  ('CNC(=O)N(O)Cc1ccccc1Nc1cccc(C(F)(F)F)c1', 5.66);

Pending molecule:
Recorded pIC50 for "COc1ccc2c(c1)c(CN(O)C(C)=O)c(C)n2C(=O)c1ccc(Cl)cc1" , please?
4.82

###

Target: UniProt Q63921
Experiment: ARBC whole cell cyclooxygenase assay (PGF2α formation in RBL-1 cells, A23187 stimulated)
Details: RBL-1 cells; read-out: ARBC IC50 (inhibition of PGF2α formation)
assay.readout: IC50 (µM)
Number only, in µM; omit the unit.

Here's what some known entries look like.
INSERT INTO assay_data (compound, tested_system, display_unit, test_value) VALUES
  ('COC(=O)CCC(=O)N(O)Cc1c(C)n(C(=O)c2ccc(Cl)cc2)c2ccc(OC)cc12 [Example 65]', 'UniProt Q63921', 'µM', 9.4),
  ('CCOC(=O)CC(=O)N(O)Cc1c(C)n(C(=O)c2ccc(Cl)cc2)c2ccc(OC)cc12 [Example 64]', 'UniProt Q63921', 'µM', 14),
  ('CC(=O)N(O)Cc1ccc2c(c1)Cc1ccccc1-2 [Example 4]', 'UniProt Q63921', 'µM', 12),
  ('CC(=O)N(O)Cc1ccccc1Nc1c(Cl)ccc(C)c1Cl [Example 54]', 'UniProt Q63921', 'µM', 5),
  ('CC(C)C(=O)N(O)Cc1ccc2c(c1)OCc1ccccc1C2=O [Example 17]', 'UniProt Q63921', 'µM', 5.8);

Query for UniProt Q63921: what IC50 does the record show for CC(=O)N(O)Cc1ccccc1Nc1cccc(C(F)(F)F)c1 [Example 55] ?
5.2

###

Target: Cyclooxygenase (Rattus norvegicus)
Construct: host or cells: RBL-1 rat basophilic leukemia cells
Test: ARBC whole cell cyclooxygenase assay (PGF2α formation in RBL-1 cells, A23187 stimulated)
Assay type: cell-based
Conditions: at 16 μM; RBL-1 cells; read-out: ARBC % inhibition of PGF2α
assay.readout: inhibition at 16 µM (%)
// units = %; emit number, no label

Here is how some compounds turned out for inhibition at 16 µM.
INSERT INTO results (compound, test_value) VALUES
  ('CCOC(=O)N(O)Cc1ccccc1Nc1cccc(C(F)(F)F)c1', 91),
  ('CC(NO)c1ccc2c(c1)Cc1ccccc1-2 (centres unmarked)', 89),
  ('CNC(=S)N(O)C(C)c1ccc2c(c1)Cc1ccccc1-2 (centres unmarked)', 59),
  ('COc1ccc2c(c1)c(CN(O)C(=O)N(C)C)c(C)n2C(=O)c1ccc(Cl)cc1', 73);

# query: inhibition at 16 µM of entry "C=CCNC(=O)N(O)Cc1c(C)n(C(=O)c2ccc(Cl)cc2)c2ccc(OC)cc12"
50

Check CCOC(=O)N(O)C(C)c1ccc2c(c1)Cc1ccccc1-2 (centres unmarked) too.
79

Now the compound ONCc1ccc2c(c1)Cc1ccccc1-2 [Example 1, N-Hydroxy-9H-fluorene-2-methanamine]
76

Likewise for CCNC(=O)N(O)C(C)c1ccc2c(c1)Cc1ccccc1-2 (centres unmarked) ?
49

###

The reader will find reported IC50 values listed item by item below.
Target: 5-Lipoxygenase (Rattus norvegicus, UniProt P12527)
Assay: ARBL whole cell 5-lipoxygenase assay (LTB4 formation in RBL-1 cells, A23187 stimulated)
Settings: RBL-1 cells; read-out: ARBL IC50 (inhibition of LTB4 formation)
Only the number, expressed in nM, is required.

Examples with answers:
INSERT INTO results (compound, test_value) VALUES
  ('CC(=O)N(O)C(C)c1ccccc1Nc1c(Cl)ccc(C)c1Cl (centres unmarked)', 1800),
  ('CC(=O)N(O)Cc1ccccc1Nc1cccc(C(F)(F)F)c1', 280),
  ('CCOC(=O)CC(=O)N(O)Cc1c(C)n(C(=O)c2ccc(Cl)cc2)c2ccc(OC)cc12', 1100),
  ('CC(=O)N(O)Cc1ccccc1Nc1c(Cl)cccc1Cl', 1300);

Which IC50 value is on record for "CNC(=S)N(O)Cc1c(C)n(C(=O)c2ccc(Cl)cc2)c2ccc(OC)cc12" ?
400

Quick one: "CNC(=O)N(O)Cc1ccc2c(c1)OCc1ccccc1C2=O"
510

"CC(=O)N(O)Cc1ccccc1Nc1c(Cl)ccc(C)c1Cl" ?
180
